B1: POU domain, class 2, transcription factor 1, residues 285 to 354; numbered along this chain, P14859 (parent)
chain: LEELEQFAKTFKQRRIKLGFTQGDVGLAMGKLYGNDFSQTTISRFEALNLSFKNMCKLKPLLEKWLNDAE

# Variants of: B1
# assay_info: abundance fitness (aPCA) (normalised: wild type 0, dead -1); higher = more abundant; growth selection in yeast, the domain comes from the species named
# stated_conditions: Homo sapiens
Label Y for high-side abundance fitness (at or above -0.07) and N for low-side abundance fitness (below it).

1. LEELEQFAKTFKQRRIKLGFTQGGVGLAMGKLYGNDFSQTTISRFEALNLSFKNMCKLKPLLEKWLNDAE [D24G]    N
2. LEELEQFAKTFKQRRIKLGFTQGDVGLAMGKLYGNDFSQTTISRFEALNLSFKNMCKLKPLLEKWLNGAE [D68G]    Y
3. LEELEQFAKTFKQRRIKLGFTQGDVGLAMGKLYGNDGSQTTISRFEALNLSFKNMCKLKPLLEKWLNDAE [F37G]    N
4. LEELEQFAKTFKQRRIKLGFTQGDVGLAMGKLYGNDFSQTTISRFEQLNLSFKNMCKLKPLLEKWLNDAE [A47Q]    Y
5. LEELEQFAKTFKQRRIKLGFTQGDVGLAMGKLYGNDFSQTTISRFEALNLSFKVMCKLKPLLEKWLNDAE [N54V]    Y
6. LEELEQFAKTFKQRRIKLGFTQGDVGLAMGKLYGNCFSQTTISRFEALNLSFKNMCKLKPLLEKWLNDAE [D36C]    Y
7. LEELEQFAKTFKQRVIKLGFTQGDVGLAMGKLYGNDFSQTTISRFEALNLSFKNMCKLKPLLEKWLNDAE [R15V]    N
8. LEELEQFAKTFKQRRIKLGFTQGDVGLAMGKLYGNDFSQTTNSRFEALNLSFKNMCKLKPLLEKWLNDAE [I42N]    N
9. LEELEQFAKTFKQRRIKLGFTQGDVGLAMGKLYGNDFSQTTISRFEALNLSFKNMCKLKPLLEKWLDDAE [N67D]    Y
10. LEELEQFAKTFKQRRIKLGFTQGDVGLAMGKLYGNDFSQTTISRFEALNLSFKNMCKLKPLLEKWLNPAE [D68P]    N
11. LEELEQFAKTFKNRRIKLGFTQGDVGLAMGKLYGNDFSQTTISRFEALNLSFKNMCKLKPLLEKWLNDAE [Q13N]    Y
12. LEELEQFAKTFKQRRIKLGFTQGDVGLAMGKLQGNDFSQTTISRFEALNLSFKNMCKLKPLLEKWLNDAE [Y33Q]    Y
13. LEELEQFAKTFKQRRIKLGFTQGDVGLAMGKLYGNDFSQTVISRFEALNLSFKNMCKLKPLLEKWLNDAE [T41V]    Y
14. LEELEQFAKTFKQRRIKLGFTQGDVGLAMGKLYGNGFSQTTISRFEALNLSFKNMCKLKPLLEKWLNDAE [D36G]    N
15. LEELEQFAKTFKQRRIKLGFTQGDVGLAMGKLYGNDFSQTTISRFEALNLSFKNMCKLPPLLEKWLNDAE [K59P]    N
16. LEELEQFAKTFKQRRIKCGFTQGDVGLAMGKLYGNDFSQTTISRFEALNLSFKNMCKLKPLLEKWLNDAE [L18C]    N
17. LEELEQFAKTFKSRRIKLGFTQGDVGLAMGKLYGNDFSQTTISRFEALNLSFKNMCKLKPLLEKWLNDAE [Q13S]    Y
